Target: murine SR-BI (Mus musculus)
Construct: expressed in transfected cells; host or cells: ldlA-7 (LDL receptor deficient Chinese hamster ovary cells)
Sequence (Q61009 1-509): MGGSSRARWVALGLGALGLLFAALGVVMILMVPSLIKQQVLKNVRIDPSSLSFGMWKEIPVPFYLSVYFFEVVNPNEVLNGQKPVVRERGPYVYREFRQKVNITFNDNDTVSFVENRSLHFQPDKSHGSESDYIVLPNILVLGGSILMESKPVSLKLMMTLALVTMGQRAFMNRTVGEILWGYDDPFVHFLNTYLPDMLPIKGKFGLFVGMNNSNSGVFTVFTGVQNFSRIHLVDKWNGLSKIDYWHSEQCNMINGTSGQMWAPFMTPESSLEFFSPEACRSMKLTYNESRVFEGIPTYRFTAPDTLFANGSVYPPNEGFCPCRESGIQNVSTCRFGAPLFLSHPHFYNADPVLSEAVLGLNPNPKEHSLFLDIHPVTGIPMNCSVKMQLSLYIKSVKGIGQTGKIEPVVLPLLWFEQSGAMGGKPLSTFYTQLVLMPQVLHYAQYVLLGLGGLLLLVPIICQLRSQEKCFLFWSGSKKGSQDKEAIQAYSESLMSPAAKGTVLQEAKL
Assay: Uptake of DiI from DiI-HDL by ldlA[mSR-BI] cells (high throughput screen and concentration dependence)
Type: cell-based
Conditions: Test 1
Classification field: 1 = ENDOHDL Test 1 at or over 0.6; -1 = ENDOHDL Test 1 under 0.6.

O=C(Nc1ccc(NC(=O)c2cccc([N+](=O)[O-])c2)c(Cl)c1)c1cccc([N+](=O)[O-])c1 :: -1

Enquiry: Decide: ENDOHDL Test 1 of Nc1ccc(C(=O)Nc2ccc(C3Nc4ccc(SC(=O)c5ccc(N)cc5)c(Cl)c4S3)cc2)cc1 (centres unmarked) >= 0.6?
Return: -1

Enquiry: Decide: ENDOHDL Test 1 of COC(=O)Cn1c2c(c3cc(C)ccc31)CCCC2NC(C)c1ccccc1 (centres unmarked) >= 0.6?
Return: -1

Enquiry: Decide: ENDOHDL Test 1 of Cc1cccc(C(=O)N/N=C/c2ccccc2Cl)c1 >= 0.6?
Return: 1

Enquiry: Decide: ENDOHDL Test 1 of COc1ccc2[nH]cc(CCN3CCOC3=O)c2c1 >= 0.6?
Return: 1

Enquiry: Decide: ENDOHDL Test 1 of CCN(CC(O)COc1ccccc1C(C)=O)S(=O)(=O)[O-].[Na+] (centres unmarked) >= 0.6?
Return: 1

Enquiry: Decide: ENDOHDL Test 1 of O=C(O)c1cc(C(=O)O)nc(C(=O)O)c1 >= 0.6?
Return: 1

Enquiry: Decide: ENDOHDL Test 1 of CCOC(=O)c1c(C)n(-c2ccccc2)c2ccc(NS(=O)(=O)c3ccccc3)cc12 >= 0.6?
Return: 1

Enquiry: Decide: ENDOHDL Test 1 of Cc1cccc(C(=O)Nc2cccc(-c3nc4c(C)cccc4o3)c2)c1 >= 0.6?
Return: -1
